Please respond with reported ratio of IC50 for hERG inhibition to IC50 for inhibition of LS174T cell proliferation for every item in the list.
molecular target: UniProtKB Q12809; settings: human
Sequence (Q12809 whole entry): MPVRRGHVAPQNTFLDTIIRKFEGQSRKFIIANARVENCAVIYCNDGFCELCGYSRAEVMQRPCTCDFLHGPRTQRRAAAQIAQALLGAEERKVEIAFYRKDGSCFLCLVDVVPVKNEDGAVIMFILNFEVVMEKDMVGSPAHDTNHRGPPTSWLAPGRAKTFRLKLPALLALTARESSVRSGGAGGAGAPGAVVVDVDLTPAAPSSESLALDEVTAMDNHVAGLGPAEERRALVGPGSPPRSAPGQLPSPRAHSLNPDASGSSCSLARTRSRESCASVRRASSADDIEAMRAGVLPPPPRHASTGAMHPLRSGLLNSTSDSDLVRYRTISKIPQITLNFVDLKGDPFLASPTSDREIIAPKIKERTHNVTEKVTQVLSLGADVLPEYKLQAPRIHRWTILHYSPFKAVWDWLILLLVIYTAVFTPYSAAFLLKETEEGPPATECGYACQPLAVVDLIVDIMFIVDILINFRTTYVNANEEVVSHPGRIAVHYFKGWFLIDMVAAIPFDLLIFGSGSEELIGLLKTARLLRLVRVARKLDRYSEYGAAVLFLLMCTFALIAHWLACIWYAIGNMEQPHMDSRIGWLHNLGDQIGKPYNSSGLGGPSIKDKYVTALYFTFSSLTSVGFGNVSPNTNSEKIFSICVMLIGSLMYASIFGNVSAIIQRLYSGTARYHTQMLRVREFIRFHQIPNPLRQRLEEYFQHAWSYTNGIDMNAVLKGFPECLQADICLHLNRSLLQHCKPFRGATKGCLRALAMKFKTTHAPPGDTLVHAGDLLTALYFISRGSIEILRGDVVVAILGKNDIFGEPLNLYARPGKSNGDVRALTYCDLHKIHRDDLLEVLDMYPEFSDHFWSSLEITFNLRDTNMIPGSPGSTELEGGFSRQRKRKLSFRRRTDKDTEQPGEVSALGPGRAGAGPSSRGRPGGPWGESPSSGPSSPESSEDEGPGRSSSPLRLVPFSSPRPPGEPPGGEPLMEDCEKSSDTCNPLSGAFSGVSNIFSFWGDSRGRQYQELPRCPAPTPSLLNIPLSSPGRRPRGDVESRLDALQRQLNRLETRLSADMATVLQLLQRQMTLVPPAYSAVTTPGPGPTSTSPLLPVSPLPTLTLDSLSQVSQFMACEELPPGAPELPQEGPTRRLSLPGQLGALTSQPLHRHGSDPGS

Give the measured ratio of IC50 for hERG inhibition to IC50 for inhibition of LS174T cell proliferation of CNc1ccc(/C=C/c2c(F)cccc2Cl)cn1 [FIDAS 8b] .
5.0 × 10^3

Data request, read-out ratio of IC50 for hERG inhibition to IC50 for inhibition of LS174T cell proliferation, for CNc1ccc(/C=C/c2c(F)cccc2Cl)cc1 [FIDAS 2b]
6.6 × 10^3

// lookup ratio of IC50 for hERG inhibition to IC50 for inhibition of LS174T cell proliferation for CN(C)c1ccc(/C=C/c2c(F)cccc2Cl)nc1 [FIDAS 5a]
1.0 × 10^3

What value of ratio of IC50 for hERG inhibition to IC50 for inhibition of LS174T cell proliferation has been recorded for this entry: CN(C)c1ccc(/C=C/c2c(F)cccc2Cl)cn1 [FIDAS 8a]
12.7 × 10^3

State the recorded ratio of IC50 for hERG inhibition to IC50 for inhibition of LS174T cell proliferation for this entry: CN(C)c1ncc(/C=C/c2c(F)cccc2F)cn1 [FIDAS 10a]
0.5 × 10^3

Return reported ratio of IC50 for hERG inhibition to IC50 for inhibition of LS174T cell proliferation; argument: CNc1ccc(/C=C/c2c(F)cccc2F)cc1 [FIDAS 1b]
6.5 × 10^3
